TARGET_UNDER_TEST: T1, proprotein convertase subtilisin/kexin type 9 (PCSK9) (human, UniProt Q8NBP7 31-692)
T1 construct: His-tagged full-length PCSK9 in TR-FRET and SPR, biotinylated in phage ELISA; secreted protein is autoprocessed (prodomain plus catalytic/CRD chain starting at S153); also called rec.PCSK9; His-PCSK9
EXPERIMENTAL_DETAILS: phage spot ELISA;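 further: phage clones bound to PCSK9 or PCSK9Δhelix by ELISA, noise being the same phage on NeutrAvidin, positive when signal above 0.4 and signal:noise above 2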
PARAMETER: s/n ratio
Write the number on its own, no unit after it.

// solved cases for s/n ratio follow
TAFTSWEEYLDWVGSGACLNHFVSGNMIRC [SEQ ID NO 327]: 26.1
TAFTSWEEYLDWVGSGTRYADRGVMVYSLS [SEQ ID NO 321]: 23

Next:
Prompt line: Any idea what s/n ratio was measured for TAFTSWEEYLDWVGSGKLWNLTRISS [SEQ ID NO 312] ?
Response line: 28.1
